Biological target: human FAAH (Homo sapiens)
Construct: host or cells: COS-7 cells, transient transfection; 13,000 g membrane fraction solubilised in 1% Triton X-100
Sequence (O00519 whole entry): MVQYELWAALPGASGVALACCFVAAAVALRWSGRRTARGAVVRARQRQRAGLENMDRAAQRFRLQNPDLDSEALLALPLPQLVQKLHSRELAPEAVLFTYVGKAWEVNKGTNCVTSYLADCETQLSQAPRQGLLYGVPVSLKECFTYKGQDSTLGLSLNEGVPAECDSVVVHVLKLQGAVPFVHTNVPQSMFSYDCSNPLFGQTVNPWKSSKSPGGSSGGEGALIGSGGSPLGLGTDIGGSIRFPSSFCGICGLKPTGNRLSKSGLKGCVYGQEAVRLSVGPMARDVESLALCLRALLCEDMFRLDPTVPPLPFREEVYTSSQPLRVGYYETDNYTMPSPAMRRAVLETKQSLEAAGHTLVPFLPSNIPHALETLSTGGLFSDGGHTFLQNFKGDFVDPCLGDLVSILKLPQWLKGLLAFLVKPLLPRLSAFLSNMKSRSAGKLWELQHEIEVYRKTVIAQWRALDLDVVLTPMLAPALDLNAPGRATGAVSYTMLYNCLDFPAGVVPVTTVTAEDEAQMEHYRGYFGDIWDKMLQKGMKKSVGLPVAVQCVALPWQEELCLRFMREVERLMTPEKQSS
Experiment: Human FAAH biochemical inhibition assay (AMC arachidonoyl amide fluorescence)
Conditions: Table 2, human FAAH (no asterisk); read-out: Activity (Ki)
Procedure: The resulting solution is added into one dish of 30-40% confluent COS-7 cells in a drop-wise manner. The COS-7 cell dish is subsequently incubated for 48 hours. The cells are then harvested. Harvest procedure: Media was aspirated from the dishes and the cells rinsed with 10 mL PBS. […] Human FAAH assay; Experimental Protocol: A 0.1 mg/mL Human FAAH solution is made up in FAAH reaction buffer, and 24 ul pipetted into a 384 well plate. […] The microtiter plate in read in the envision plate reader.
pKi: −log10 of the molar value.
Measured pKi accompanies every entry in the list below.

Look over these answered cases.
compound	measured endpoint	measured result
CN(Cc1ccccc1)C(=O)c1ccc(B(O)O)cc1 [II-163]	pKi	7.00 to 8.00
OB(O)c1ccc(Oc2cccc(N3CCCCC3)c2)cc1F [II-196]	pKi	< 6.00
O=C1C[N+]2(Cc3ccccc3)CC(=O)O[B-]2(c2ccc(-c3cccc(F)c3)cc2F)O1 (centres unmarked) [II-5]	pKi	> 8.00
OB(O)c1ccc(OCc2ccccc2)cc1 [II-314]	pKi	7.00 to 8.00
O=C1c2ccc(B(O)O)cc2C(=O)N1c1ccccc1 [II-144]	pKi	7.00 to 8.00

Challenge: Look up pKi: Cc1ncc(-c2ccc(B(O)O)cc2)s1 [II-45]
Response given: < 6.00

Challenge: Would you kindly share the measured pKi for C[C@@H](COc1ccc(B(O)O)c(F)c1)c1ccccc1 [II-139] ?
Response given: > 8.00

Challenge: Need pKi of CC1(C)OB(c2ccc(OCCc3ccccc3)cc2)OC1(C)C [II-168] , thanks.
Response given: 7.00 to 8.00

Challenge: Recorded pKi of CN(Cc1ccc(B(O)O)c2ccccc12)c1ccccc1 [II-112] , please.
Response given: < 6.00

Challenge: Endpoint output: pKi of Nc1cccc(Oc2ccc(B(O)O)cc2)c1 [II-287] . Value?
Response given: 7.00 to 8.00

Challenge: # pKi lookup, item O=C(OCc1ccccc1)c1cc(Oc2cccc(F)c2)ccc1B(O)O [II-151]
Response given: 6.00 to 8.00

Challenge: Param item = Cc1ccc(Oc2ccc(B(O)O)c(F)c2)cc1Cl [II-211] ; retrieve measured pKi.
Response given: > 8.00

Challenge: So what does the record say about pKi for OB(O)c1ccc(Oc2cccc(F)c2)c(F)c1 [II-85] ?
Response given: > 8.00

Challenge: # get_value(readout='pKi', item= OB(O)c1ccc(Oc2cccnc2)cc1 [II-293] )
Response given: > 8.00

Challenge: // pKi lookup, key: CN(C)c1cccc(Oc2ccc(B(O)O)cc2F)c1 [II-205]
Response given: > 8.00

Challenge: For the compound shown here, OB(O)c1ccc(Oc2cccnc2)cc1F [II-149] , give the reported pKi.
Response given: > 8.00

Challenge: Suppose we examine the compound CN(C)c1cccc(Oc2ccc(B(O)O)cc2)c1 [II-78] ; what pKi value has been reported?
Response given: > 8.00

Challenge: Please give the measured pKi for this compound: CC1(C)OB(c2ccc(OCc3cccnc3)cc2F)OC1(C)C [II-161]
Response given: 7.00 to 8.00

Challenge: For NC(=O)c1cccc(-c2cccc(B(O)O)c2)c1 [II-303] , what is its reported pKi?
Response given: < 6.00

Challenge: I have this compound here, Cc1ccc(F)c(COc2ccc(B(O)O)cc2)c1Cl [II-266] , and I need its recorded pKi.
Response given: 7.00 to 8.00

Challenge: What does the data say about its pKi? Entry: O=C(CCCc1ccc(B(O)O)cc1)c1ccccc1 [II-76]
Response given: > 8.00

Challenge: Consider the compound shown here: CC(Oc1ccc(B(O)O)cc1)c1ccccc1 (centres unmarked) [II-238] What is its recorded pKi?
Response given: 7.00 to 8.00

Challenge: Could you share which pKi value was measured for CCCOc1ccc(Oc2ccc(B(O)O)cc2)cc1F [II-273] ?
Response given: > 8.00
